# Tested on: Staphylococci
# test-details: Antibiotic sensitivity (doubling-dilution, MIC-2000) of patient isolates before and after Stage 1
# Format: cell-based
# cond: Before Treatment
# Protocol: Antibiotics were administered according to established dosages and routes: i.e., penicillin, Ampicillin, oxacillin, tetracycline, erythromycin, garamycin; administered by intramuscular route. […] (Antibiotic sensitivity was determined by testing staphylococcal isolates for their sensitivity in an antibiotic sensitivity doubling-dilution assay with the aid of the semi-automatic MIC-2000 system, Dynatech, USA). […]
Mean minimum inhibitory concentration (MIC) listing for selected compounds.
observed-property: Mean minimum inhibitory concentration (MIC) (µg/mL)

* CC(=O)OCC1=C(C(=O)O)N2C(=O)[C@@H](NC(=O)Cc3cccs3)[C@H]2SC1 [Keflin] | 4.49
* CN[C@@H]1[C@@H](O)[C@@H](O[C@@H]2[C@@H](O)[C@H](O[C@H]3OC(CN)=CC[C@H]3N)[C@@H](N)C[C@H]2N)OC[C@]1(C)O [Cisomycin] | 3.46
* NC[C@H]1O[C@H](O[C@H]2[C@H](O)[C@@H](O[C@H]3O[C@H](CO)[C@@H](O)[C@H](N)[C@H]3O)[C@H](N)C[C@@H]2N)[C@H](O)[C@@H](O)[C@@H]1O [Kanamycin] | 6.32

====

# System: Staphylococci
# test-details: Antibiotic sensitivity (doubling-dilution, MIC-2000) of patient isolates before and after Stage 1
# Type: cell-based
# cond: Before Treatment
Mean minimum inhibitory concentration (MIC) listing for selected compounds.
observed-property: Mean minimum inhibitory concentration (MIC) (µg/mL)

* [H]/N=C(/N)N[C@H]1[C@H](O)[C@@H](O)[C@H](O[C@@H]2O[C@@H](C)[C@](O)(C=O)[C@H]2O[C@@H]2O[C@@H](CO)[C@H](O)[C@@H](O)[C@@H]2NC)[C@@H](N/C(N)=N\[H])[C@@H]1O | 6.71
* O=C(Cc1cccs1)N[C@@H]1C(=O)N2C(C(=O)[O-])=C(C[n+]3ccccc3)CS[C@H]12 | 5.69
* CC1(C)S[C@@H]2[C@H](NC(=O)Cc3ccccc3)C(=O)N2[C@H]1C(=O)O | 9.45
* Cc1nnc(SCC2=C(C(=O)O)N3C(=O)[C@@H](NC(=O)Cn4cnnn4)[C@H]3SC2)s1 [Cephamezine] | 3.52

====

# Test system: Staphylococci
# test-details: Antibiotic sensitivity (doubling-dilution, MIC-2000) of patient isolates before and after Stage 1
# Assay type: cell-based
# cond: Before Treatment
observed-property: Mean minimum inhibitory concentration (MIC) (µg/mL)

- Cc1nnc(SCC2=C(C(=O)O)N3C(=O)[C@@H](NC(=O)Cn4cnnn4)[C@H]3SC2)s1 [Kefzol]: 4.61
- CC1(C)S[C@@H]2[C@H](NC(=O)[C@H](N)c3ccccc3)C(=O)N2[C@H]1C(=O)O [Ampicillin, reference compound]: 8.10
- Cc1onc(-c2ccccc2)c1C(=O)N[C@@H]1C(=O)N2[C@@H]1SC(C)(C)[C@@H]2C(=O)O: 5.11
- O=C(N[C@H](CO)[C@H](O)c1ccc([N+](=O)[O-])cc1)C(Cl)Cl: 9.17

Attribution: patent US6368788B1
